system: NCI-H226; assay: NCI tumour cell line growth inhibition, 48 h
The source made the active and inactive calls. No stated cut-off is given here; in the data, active = GI50 up to about 1.1 µM and inactive = higher.
Outcome measure: GI50

As a guide, the following entries are already answered.
CC(C)(C)OC(=O)N[C@@H](Cc1ccccc1)C(=O)N1CC[C@@H](C(=O)N2[C@H]3CC4CC[C@@]3(CS2(=O)=O)C4(C)C)N1: > 100 µM (inactive)
CC(C)(C)[Si](C)(C)OCC1OC(n2ccc(=O)[nH]c2=O)C(O[Si](C)(C)C(C)(C)C)/C1=N/O (configuration not stated): 2.82 µM (inactive)

Ask | Bench note: what GI50 did CCOC(=O)C(NCc1ccccc1)(NC(=O)c1ccccc1)C(F)(F)F (configuration not stated) show?
Reply | > 100 µM (inactive)

Ask | Data request, read-out GI50, for `N#CN1CCC=C(c2cc3ccccc3[nH]2)C1`
Reply | > 448 µM (inactive)

Ask | What does the record list as GI50 for Clc1c(Cl)c(Cl)c2nn(C3CCCO3)nc2c1Cl (configuration not stated) ?
Reply | > 100 µM (inactive)

Ask | What value of GI50 has been reported for the following compound? `Cc1oc2c(c1C(=O)c1ccccc1)C(=O)c1ccccc1C2=O`
Reply | 13.9 µM (inactive)

Ask | Look at this compound and give its reported GI50. `NC(=S)NS(=O)(=O)c1ccc(F)cc1`
Reply | > 100 µM (inactive)

Ask | Suppose we examine the compound CCOC(=O)C(NC(=O)CC(C)C)(Nc1ccc(S(=O)(=O)Nc2nc(C)cc(C)n2)cc1)C(F)(F)F (configuration not stated) ; what GI50 value has been reported?
Reply | > 100 µM (inactive)

Ask | Item `O=Cc1ccc(-c2cc(C=O)c(-c3cccs3)[nH]2)s1` has what recorded GI50?
Reply | 4.76 µM (inactive)

Data provenance: ChEMBL document CHEMBL1201862
